Molecular target: T1, Recombinant human Dkk-1 (R&D Systems cat no. 1096-DK/CF), 10xHis tag at the C terminal (human, UniProt O94907 32-266)
T1 construct: the actual N-terminus of the purified protein is marked in bold italic after residue 30, but the mark is an image lost in the text; also called rhuDkk-1; hDkk-1
T1 sequence: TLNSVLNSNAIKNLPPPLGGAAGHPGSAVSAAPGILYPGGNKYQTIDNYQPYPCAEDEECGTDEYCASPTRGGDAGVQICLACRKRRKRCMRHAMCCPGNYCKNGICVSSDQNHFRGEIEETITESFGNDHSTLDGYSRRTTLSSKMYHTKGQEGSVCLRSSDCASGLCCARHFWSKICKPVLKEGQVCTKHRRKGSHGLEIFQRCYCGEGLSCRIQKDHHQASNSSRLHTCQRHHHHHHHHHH
Assay: theoretical: koff / estimated kon 1e6 1/Ms (SPR screening 37C)
Reported Property: pKd
The scale used: pKd is minus the common logarithm of the concentration in molar units.

| Binder | Reported Property | Test Result |
| --- | --- | --- |
| L3.4H2 (Fab, V domains shown, tested as Fab (E. coli lysate, screening mode); human kappa CL and IgG2 CH1 not included here; printed changes identical to L3.4E7) VH: EVQLVESGGGLVQPGGSLRLSCAASGFTFSSYAISWVRQAPGKGLEWVASVSGWGDTYYPDSVKGRFTISRDNAKNSLYLQMNSLRAEDTAVYYCATSLQNYAFDYWGQGTTVTVSS VL: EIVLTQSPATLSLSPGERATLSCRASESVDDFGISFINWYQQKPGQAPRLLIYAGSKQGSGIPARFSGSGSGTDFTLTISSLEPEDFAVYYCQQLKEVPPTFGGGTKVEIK | pKd | 10.32 |
| SL3.1D2 (Fab, V domains shown, tested as Fab (E. coli lysate, screening mode); human kappa CL and IgG2 CH1 not included here) VH: EVQLVESGGGLVQPGGSLRLSCAASGFTFSSYAISWVRQAPGKGLEWVASVSGGGRTYYPDSVKGRFTISRDNAKNSLYLQMNSLRAEDTAVYYCATSLENYAFDYWGQGTTVTVSS VL: EIVLTQSPATLSLSPGERATLSCRASESVDDFGISFMNWYQQKPGQAPRLLIYAASKQGSGIPARFSGSGSGTDFTLTISSLEPEDFAVYYCQQSKEVPPLFGGGTKVEIK | pKd | 8.31 |

We now examine a further binder.
Challenge: Supply recorded pKd for 24 (Fab, V domains shown, positive control Fab of the screening assays; human kappa CL and IgG2 CH1 not included here; printed changes identical to L2.1E5; also called clone 24; Clone 24 Fab) VH: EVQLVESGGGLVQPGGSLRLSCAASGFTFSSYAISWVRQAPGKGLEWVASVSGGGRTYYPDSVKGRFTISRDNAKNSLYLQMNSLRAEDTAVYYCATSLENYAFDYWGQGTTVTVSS VL: EIVLTQSPATLSLSPGERATLSCRASESVDDFGISFMNWYQQKPGQAPRLLIYAASKQGSGIPARFSGSGSGTDFTLTISSLEPEDFAVYYCQQSKEVPPTFGGGTKVEIK here.
Response given: 7.94
